Data provenance: paper PMC8041284

# TARGET ENTITY: BTK (Homo sapiens, UniProt Q06187)
# Sequence (Q06187 402-655 limits assumed): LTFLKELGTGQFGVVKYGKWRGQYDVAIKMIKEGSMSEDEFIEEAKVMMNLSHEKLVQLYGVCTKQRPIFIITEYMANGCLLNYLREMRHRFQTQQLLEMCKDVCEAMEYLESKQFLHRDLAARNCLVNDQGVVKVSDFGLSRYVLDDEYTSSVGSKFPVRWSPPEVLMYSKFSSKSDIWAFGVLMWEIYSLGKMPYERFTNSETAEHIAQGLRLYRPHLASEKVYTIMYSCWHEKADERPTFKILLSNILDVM
# ASSAY NAME: biochemical
# CONDITION SUMMARY: read-out: BTK inhibition (%), 0.75 uM BTK, […] probe 3l, 15 min preincubation
Is inhibition at 10 µM at least 10%? Then t. If not, f.

Record excerpt, results attached:
[
  {
    "SMILES REPR": "Fc1ccc(CNc2ncnc3ccc(F)cc23)cc1",
    "GROUP LABEL": "f"
  },
  {
    "SMILES REPR": "CC12CCC(CC1)C(C)(C)O2",
    "GROUP LABEL": "t"
  },
  {
    "SMILES REPR": "NCCOc1cc(C(=O)Nc2cc(OCCN)c3ccccc3n2)nc(C(=O)Nc2cc(OCCN)c3ccccc3n2)c1",
    "GROUP LABEL": "t"
  }
]

Query string: # check: inhibition at 10 µM of O=c1ccc2ccc(OCCCCN3CCN(c4cccc5sccc45)CC3)cc2[nH]1 is greater than or equal to 10%
Result string: f

Query string: Exam item: decide whether the reported inhibition at 10 µM for COc1ccc(-c2cc(=O)c3c(O)cc(O)cc3o2)cc1O is at least 10%.
Result string: t

Query string: Is it the case that C[C@H]1O[C@@H](O[C@H]2CC[C@@]3(C)[C@@H](CC[C@]4(C)[C@@H]3C=C[C@]35OC[C@@]6(CCC(C)(C)C[C@H]63)[C@H](O)C[C@]54C)[C@]2(C)CO)[C@H](O)[C@@H](O[C@@H]2O[C@H](CO)[C@@H](O)[C@H](O)[C@H]2O)[C@H]1O has inhibition at 10 µM reaching or exceeding 10%?
Result string: f

Query string: Please check the record Cc1ncc(NC(=O)c2cccc(C(F)(F)F)c2)cc1-c1cnc(OC2CCOCC2)c(N2CCOCC2)c1 and state if its inhibition at 10 µM is at or above 10%.
Result string: f

###

Parameter: inhibition at 10 µM. Scope: all listed entries.
# TARGET ENTITY: BTK (Homo sapiens, UniProt Q06187)
# ASSAY NAME: biochemical
# CONDITION SUMMARY: read-out: BTK inhibition (%), 0.75 uM BTK, […] probe 3l, 15 min preincubation
Report the figure in % without appending any unit label.

Worked set:
[
  {
    "COMPOUND": "Cc1cc(/C(O)=C2\\C(=O)C(=O)N(CCCN3CCOCC3)C2c2ccncc2)ccc1OCc1ccccc1 (centres unmarked)",
    "QUANTITY UNIT": "%",
    "inhibition at 10 µM": 0
  },
  {
    "COMPOUND": "O=C1c2c(O)ccc(O)c2C(=O)c2c(NCCNCCO)ccc(NCCNCCO)c21",
    "QUANTITY UNIT": "%",
    "inhibition at 10 µM": 51
  },
  {
    "COMPOUND": "CC(C)=CCC[C@](C)(O)[C@H]1CC[C@]2(C)[C@@H]1[C@H](O)C[C@@H]1[C@@]3(C)CC[C@H](O[C@@H]4O[C@H](CO)[C@@H](O)[C@H](O)[C@H]4O[C@@H]4O[C@H](CO)[C@@H](O)[C@H](O)[C@H]4O)C(C)(C)[C@@H]3CC[C@]12C",
    "QUANTITY UNIT": "%",
    "inhibition at 10 µM": 16.2
  },
  {
    "COMPOUND": "CC(C)n1nc(-c2ccc3oc(N)nc3c2)c2c(N)ncnc21",
    "QUANTITY UNIT": "%",
    "inhibition at 10 µM": -6.2
  }
]

Query string: Find inhibition at 10 µM (BTK (Homo sapiens, UniProt Q06187)) for the entry CO/N=C(\C(=O)N[C@@H]1C(=O)N2C(C(=O)[O-])=C(C[n+]3ccn4ncccc43)CS[C@H]12)c1nsc(N)n1
Result string: 10.8

Query string: I'm curious: which inhibition at 10 µM was measured for Nc1ncn([C@H]2C[C@H](O)[C@@H](CO)O2)c(=O)n1 tested on BTK (Homo sapiens, UniProt Q06187)?
Result string: 11

###

# TARGET ENTITY: BTK (Homo sapiens, UniProt Q06187)
# ASSAY NAME: biochemical
# CONDITION SUMMARY: read-out: BTK inhibition (%)
inhibition at 10 µM listing for selected compounds.
Respond numerically; units are % and should not be typed.

Recorded results for 8 compounds are shown here.
[
  {
    "COMPOUND": "CCN1C[C@]2(COC)CC[C@H](OC)[C@]34C1[C@H]([C@H](OC)[C@H]23)[C@@]1(OC(C)=O)C[C@H](OC)[C@@]2(O)C[C@@H]4[C@@H]1[C@H]2OC(=O)c1ccc(OC)cc1",
    "QUANTITY UNIT": "%",
    "inhibition at 10 µM": -17
  },
  {
    "COMPOUND": "CC1(C)C(=O)N(c2ccc(C#N)c(C(F)(F)F)c2)C(=O)N1CCCCO",
    "QUANTITY UNIT": "%",
    "inhibition at 10 µM": 11.6
  },
  {
    "COMPOUND": "COc1cc(OC)c(OC)cc1C=O",
    "QUANTITY UNIT": "%",
    "inhibition at 10 µM": -12.4
  },
  {
    "COMPOUND": "C[C@]12CC[C@H]3[C@@H](CCC4=CC(=O)C=C[C@@]43C)[C@@H]1CC[C@@H]2O",
    "QUANTITY UNIT": "%",
    "inhibition at 10 µM": -13.1
  },
  {
    "COMPOUND": "NCC(CC(=O)O)c1ccccc1 (centres unmarked)",
    "QUANTITY UNIT": "%",
    "inhibition at 10 µM": -9.3
  },
  {
    "COMPOUND": "Cc1sc2c(c1C)C(c1ccc(Cl)cc1)=N[C@@H](CC(=O)OC(C)(C)C)c1nnc(C)n1-2",
    "QUANTITY UNIT": "%",
    "inhibition at 10 µM": 10.8
  },
  {
    "COMPOUND": "C[C@]12CC[C@H](O)C[C@@H]1CC[C@@H]1[C@@H]2CC[C@]2(C)C(=O)CC[C@@H]12",
    "QUANTITY UNIT": "%",
    "inhibition at 10 µM": -21.8
  },
  {
    "COMPOUND": "C=C1CC[C@H]2[C@@H](/C=C(/C)C(=O)[C@@]3(O)C[C@H](C)[C@H](O)[C@@H]3[C@H]1O)C2(C)C",
    "QUANTITY UNIT": "%",
    "inhibition at 10 µM": -9.3
  }
]

Query string: Give its inhibition at 10 µM value. Item: CO[C@H]1C[C@H](O[C@H]2CC[C@]3(C)[C@H]4CC[C@]5(C)[C@@H](C6=CC(=O)OC6)CC[C@]5(O)[C@@H]4CC[C@]3(O)C2)O[C@H](C)[C@H]1O[C@@H]1O[C@H](CO)[C@@H](O)[C@H](O)[C@H]1O
Result string: 11.6

Query string: Data request, read-out inhibition at 10 µM, for C[C@@H]1CC[C@@]2(NC1)O[C@H]1C[C@H]3[C@@H]4CC=C5C[C@@H](O[C@@H]6O[C@H](CO)[C@@H](O[C@@H]7O[C@@H](C)[C@H](O)[C@@H](O)[C@H]7O)[C@H](O)[C@H]6O)CC[C@]5(C)[C@H]4CC[C@]3(C)[C@H]1[C@@H]2C
Result string: -6.9

Query string: inhibition at 10 µM lookup needed for C/C(=C\c1csc(C)n1)[C@@H]1C[C@@H]2O[C@@H]2CCC[C@H](C)[C@H](O)[C@@H](C)C(=O)C(C)(C)[C@@H](O)CC(=O)O1 , thanks.
Result string: 1.6

Query string: Field request: inhibition at 10 µM | item: NC(=O)CN1CC(c2ccccc2)CC1=O (centres unmarked)
Result string: 10

Query string: Endpoint output: inhibition at 10 µM of C[C@]12N[C@H](Cc3ccccc31)c1ccccc12 . Value?
Result string: 3.9

Query string: Recorded inhibition at 10 µM of O=P1(NCCCl)OCCCN1CCCl (centres unmarked) , please.
Result string: -10.3

###

# TARGET ENTITY: UniProt:Q06187
# ASSAY NAME: biochemical
# CONDITION SUMMARY: read-out: BTK inhibition (%), 0.75 uM BTK, […] probe 3l, 15 min preincubation
Given measured inhibition at 10 µM, output T if it is greater than or equal to -10% and F if not.

Query string: Please tell me: is the compound O=C(Nc1ccc([N+](=O)[O-])cc1)Nc1ccc([N+](=O)[O-])cc1 at or over -10% in terms of inhibition at 10 µM?
Result string: F
